- protocol: PK of compound of Formula (Ia) after single subcutaneous dose of solution formulations in beagle dogs
- Format: in vivo
- condition_set: male, beagle, dog, plasma, sc, 12 mg/kg, 24.0 h; individual dogs; SC 12 mg/kg; solution T, 400 mg/mL
- Experimental: Formulations containing the compound of Formula (Ia), or a pharmaceutically acceptable salt thereof, were prepared as solutions and optionally administered subcutaneously or intramuscularly to rats, rabbits, and/or dogs. A solution of about 400 mg/mL of the compound of Formula (Ia) having 17.00 w/w % water, 36.40 w/w % PEG 300, 35.20 w/w % of a sodium salt of a compound of Formula (Ia), 5.00 w/w % ethanol, and 6.40 w/w % poloxamer 188 was prepared. […]

| smiles_notation | result_unit | concentration at 24 h |
| --- | --- | --- |
| CC(C)(C#Cc1ccc(-c2ccc(Cl)c3c(NS(C)(=O)=O)nn(CC(F)(F)F)c23)c([C@H](Cc2cc(F)cc(F)c2)NC(=O)Cn2nc(C(F)(F)F)c3c2C(F)(F)[C@@H]2C[C@H]32)n1)S(C)(=O)=O | nM | 233 |

###

- protocol: PK of compound of Formula (Ia) after single subcutaneous dose of solution formulations in Wistar Han rats
- Type: in vivo
- condition_set: male, Wistar Han, rat, plasma, sc, 50 mg/kg, 504 h; individual rats; SC 50 mg/kg; solution V, 300 mg/mL
readout_label: concentration at 504 h (nM)

| smiles_notation | reading |
| --- | --- |
| CC(C)(C#Cc1ccc(-c2ccc(Cl)c3c(NS(C)(=O)=O)nn(CC(F)(F)F)c23)c([C@H](Cc2cc(F)cc(F)c2)NC(=O)Cn2nc(C(F)(F)F)c3c2C(F)(F)[C@@H]2C[C@H]32)n1)S(C)(=O)=O | 241 |

###

- protocol: PK of compound of Formula (Ia) after single intramuscular dose of solution formulations in Wistar Han rats
- Type: in vivo
- condition_set: male, Wistar Han, rat, plasma, intramuscular, 100 mg/kg, 168 h; individual rats; IM 100 mg/kg; solution M, 500 mg/mL; read-out: Plasma concentration

| smiles_notation | concentration at 168 h |
| --- | --- |
| CC(C)(C#Cc1ccc(-c2ccc(Cl)c3c(NS(C)(=O)=O)nn(CC(F)(F)F)c23)c([C@H](Cc2cc(F)cc(F)c2)NC(=O)Cn2nc(C(F)(F)F)c3c2C(F)(F)[C@@H]2C[C@H]32)n1)S(C)(=O)=O | 504 nM |

###

- protocol: PK of compound of Formula (Ia) after single subcutaneous dose of solution formulations in Wistar Han rats
- Type: in vivo
- condition_set: male, Wistar Han, rat, plasma, sc, 50 mg/kg, Wistar Han rats, SC 50 mg/kg, 400 mg/mL solution Y (water, PEG 300), 8.00 h, Mean n = 4

| molecule | concentration at 8 h |
| --- | --- |
| CC(C)(C#Cc1ccc(-c2ccc(Cl)c3c(NS(C)(=O)=O)nn(CC(F)(F)F)c23)c([C@H](Cc2cc(F)cc(F)c2)NC(=O)Cn2nc(C(F)(F)F)c3c2C(F)(F)[C@@H]2C[C@H]32)n1)S(C)(=O)=O [compound of Formula (Ia)] | 65.8 nM |

###

- protocol: PK of compound of Formula (Ia) after single subcutaneous dose of solution formulations in Wistar Han rats
- Assay type: in vivo
- condition_set: male, Wistar Han, rat, plasma, sc, 50 mg/kg, 504 h; mean, n = 3 rats; SC 50 mg/kg; solution V, 300 mg/mL
readout_label: concentration at 504 h

| compound | readout_label | reading |
| --- | --- | --- |
| CC(C)(C#Cc1ccc(-c2ccc(Cl)c3c(NS(C)(=O)=O)nn(CC(F)(F)F)c23)c([C@H](Cc2cc(F)cc(F)c2)NC(=O)Cn2nc(C(F)(F)F)c3c2C(F)(F)[C@@H]2C[C@H]32)n1)S(C)(=O)=O [compound of Formula (Ia)] | concentration at 504 h | 265 nM |

###

- protocol: PK of compound of Formula (Ia) after single intramuscular dose of solution formulations in Wistar Han rats
- Assay type: in vivo
- condition_set: Wistar Han, rat, plasma, intramuscular, 100 mg/kg, Solution K (~500 mg/mL, ethanol); IM 100 mg/kg; Wistar Han rats; mean, n = 4; 72.0 h; read-out: Plasma concentration, Mean
- Experimental: Formulations containing the compound of Formula (Ia), or a pharmaceutically acceptable salt thereof, were prepared as solutions and optionally administered subcutaneously or intramuscularly to rats, rabbits, and/or dogs. A solution of about 400 mg/ml of the compound of Formula (Ia) having 21.13 w/w % water, 45.25 w/w % PEG 300, and 33.61 w/w % of a sodium salt of a compound of Formula (Ia) was prepared. […]

| smiles_notation | concentration at 72 h [nM] |
| --- | --- |
| CC(C)(C#Cc1ccc(-c2ccc(Cl)c3c(NS(C)(=O)=O)nn(CC(F)(F)F)c23)c([C@H](Cc2cc(F)cc(F)c2)NC(=O)Cn2nc(C(F)(F)F)c3c2C(F)(F)[C@@H]2C[C@H]32)n1)S(C)(=O)=O | 433 |

###

- protocol: PK of compound of Formula (Ia) after single subcutaneous dose of solution formulations in Wistar Han rats
- Format: in vivo
- condition_set: male, Wistar Han, rat, plasma, sc, 50 mg/kg, Wistar Han rats, SC 50 mg/kg, 400 mg/mL solution W (5.00% ethanol, 1.57% poloxamer 188), 1.00 h, Mean n = 3
readout_label: concentration at 1 h (nM)

| smiles_notation | reading |
| --- | --- |
| CC(C)(C#Cc1ccc(-c2ccc(Cl)c3c(NS(C)(=O)=O)nn(CC(F)(F)F)c23)c([C@H](Cc2cc(F)cc(F)c2)NC(=O)Cn2nc(C(F)(F)F)c3c2C(F)(F)[C@@H]2C[C@H]32)n1)S(C)(=O)=O | 30.6 |

###

- protocol: PK of compound of Formula (Ia) after single intramuscular dose of solution formulations in Wistar Han rats
- Type: in vivo
- condition_set: male, Wistar Han, rat, plasma, intramuscular, 100 mg/kg, 168 h; mean, n = 4 rats; IM 100 mg/kg; solution M, 500 mg/mL; read-out: Plasma concentration

| compound | concentration at 168 h / nM |
| --- | --- |
| CC(C)(C#Cc1ccc(-c2ccc(Cl)c3c(NS(C)(=O)=O)nn(CC(F)(F)F)c23)c([C@H](Cc2cc(F)cc(F)c2)NC(=O)Cn2nc(C(F)(F)F)c3c2C(F)(F)[C@@H]2C[C@H]32)n1)S(C)(=O)=O [compound of Formula (Ia)] | 560 |

###

- protocol: PK of compound of Formula (Ia) after single subcutaneous dose of solution formulations in Wistar Han rats
- Type: in vivo
- condition_set: male, Wistar Han, rat, plasma, sc, 50 mg/kg, 24.0 h; individual rats; SC 50 mg/kg; solution S, 500 mg/mL

| compound | concentration at 24 h (nM) |
| --- | --- |
| CC(C)(C#Cc1ccc(-c2ccc(Cl)c3c(NS(C)(=O)=O)nn(CC(F)(F)F)c23)c([C@H](Cc2cc(F)cc(F)c2)NC(=O)Cn2nc(C(F)(F)F)c3c2C(F)(F)[C@@H]2C[C@H]32)n1)S(C)(=O)=O [compound of Formula (Ia)] | 111 |

###

- protocol: PK of compound of Formula (Ia) after single subcutaneous dose of solution formulations in Wistar Han rats
- Assay type: in vivo
- condition_set: male, Wistar Han, rat, plasma, sc, 50 mg/kg, 3024 h; mean, n = 3 rats; SC 50 mg/kg; solution S, 500 mg/mL
- Experimental: Formulations containing the compound of Formula (Ia), or a pharmaceutically acceptable salt thereof, were prepared as solutions and optionally administered subcutaneously or intramuscularly to rats, rabbits, and/or dogs. A solution of about 400 mg/mL of the compound of Formula (Ia) having 19.14 w/w % water, 40.66 w/w % PEG 300, 35.20 w/w % of a sodium salt of a compound of Formula (Ia), and 5.00% ethanol was prepared. […]

| molecule | concentration at 3024 h / nM |
| --- | --- |
| CC(C)(C#Cc1ccc(-c2ccc(Cl)c3c(NS(C)(=O)=O)nn(CC(F)(F)F)c23)c([C@H](Cc2cc(F)cc(F)c2)NC(=O)Cn2nc(C(F)(F)F)c3c2C(F)(F)[C@@H]2C[C@H]32)n1)S(C)(=O)=O [compound of Formula (Ia)] | 108 |

###

- protocol: PK of compound of Formula (Ia) after single subcutaneous dose of solution formulations in Wistar Han rats
- Type: in vivo
- condition_set: male, Wistar Han, rat, plasma, sc, 50 mg/kg, 24.0 h; mean, n = 3 rats; SC 50 mg/kg; solution R, 400 mg/mL

| molecule | concentration at 24 h |
| --- | --- |
| CC(C)(C#Cc1ccc(-c2ccc(Cl)c3c(NS(C)(=O)=O)nn(CC(F)(F)F)c23)c([C@H](Cc2cc(F)cc(F)c2)NC(=O)Cn2nc(C(F)(F)F)c3c2C(F)(F)[C@@H]2C[C@H]32)n1)S(C)(=O)=O [compound of Formula (Ia)] | 162 nM |
